biological target: NLRP3 (Homo sapiens, UniProt Q96P20); assay: Human whole blood IL-1β release assay (LPS, nigericin; AlphaLISA); assay type: cell-based; parameters: Human whole blood in Li-heparin tubes was obtained from healthy donors from a volunteer donor panel; from tissue; host or cells: human whole blood from healthy volunteer donors; conditions: 1 μg/ml LPS, 10 μM nigericin, 3 h compound pre-incubation
Sequence (Q96P20 whole entry): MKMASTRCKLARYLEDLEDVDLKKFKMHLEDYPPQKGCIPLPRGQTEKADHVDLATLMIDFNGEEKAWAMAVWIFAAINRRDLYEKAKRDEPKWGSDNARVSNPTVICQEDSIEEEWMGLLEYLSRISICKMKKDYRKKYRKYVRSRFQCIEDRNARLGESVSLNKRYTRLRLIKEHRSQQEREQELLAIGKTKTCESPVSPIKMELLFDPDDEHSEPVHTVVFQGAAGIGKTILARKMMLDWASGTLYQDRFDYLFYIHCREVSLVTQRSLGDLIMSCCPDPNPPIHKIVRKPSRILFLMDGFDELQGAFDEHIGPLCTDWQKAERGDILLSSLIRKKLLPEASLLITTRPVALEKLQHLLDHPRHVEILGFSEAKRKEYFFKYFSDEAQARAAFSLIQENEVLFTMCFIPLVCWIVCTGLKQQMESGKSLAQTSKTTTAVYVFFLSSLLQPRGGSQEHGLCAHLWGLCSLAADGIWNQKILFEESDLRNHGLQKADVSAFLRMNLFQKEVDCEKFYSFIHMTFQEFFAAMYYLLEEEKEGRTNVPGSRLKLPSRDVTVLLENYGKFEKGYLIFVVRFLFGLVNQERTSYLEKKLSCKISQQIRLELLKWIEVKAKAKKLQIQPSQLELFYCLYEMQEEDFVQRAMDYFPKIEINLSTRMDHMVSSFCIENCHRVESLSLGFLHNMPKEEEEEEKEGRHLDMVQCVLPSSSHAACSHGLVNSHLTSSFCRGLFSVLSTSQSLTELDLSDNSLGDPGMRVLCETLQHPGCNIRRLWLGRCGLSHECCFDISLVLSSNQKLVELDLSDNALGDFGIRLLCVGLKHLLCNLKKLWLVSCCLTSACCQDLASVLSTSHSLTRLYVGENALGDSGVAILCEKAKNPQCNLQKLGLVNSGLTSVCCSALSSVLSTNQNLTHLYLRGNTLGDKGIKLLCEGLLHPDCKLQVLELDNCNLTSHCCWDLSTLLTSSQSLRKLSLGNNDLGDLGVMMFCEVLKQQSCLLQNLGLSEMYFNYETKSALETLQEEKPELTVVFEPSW
Mark condition met only for IC50 values smaller than 50 nM; exact matches and larger values are condition not met.

Query :: Could you please tell me whether IC50 recorded for `Oc1c(-c2nnc(N[C@H]3CC[C@H](O)CC3)c3cnccc23)ccc2c1CCO2` is less than 50 nM?
Result :: condition met

Query :: For Oc1c(-c2nnc(NCC3CCOC3)c3cnccc23)ccc2c1CCO2 (racemic) [Example 5] , is the recorded IC50 below the cut-off of 50 nM?
Result :: condition met

###

target: NLRP3 (Homo sapiens, UniProt Q96P20); experiment: Human whole blood IL-1β release assay (LPS, nigericin; AlphaLISA); assay type: cell-based; set-up: Human whole blood in Li-heparin tubes was obtained from healthy donors from a volunteer donor panel; from tissue; host or cells: human whole blood from healthy volunteer donors; conditions: 1 μg/ml LPS, 10 μM nigericin, 3 h compound pre-incubation
Value type: pIC50
As a rule, pIC50 stands for the negative log10 of the concentration, concentration in M.

> print(dat)
                                   molecule  recorded.result
1  Oc1c(-c2nnc(NCC3CCCO3)c3cnccc23)ccc2c1CCO2 (single isomer, unassigned) [Example 6A]             7.33
2  Oc1c(-c2nnc(N[C@H]3CC[C@@H](O)CC3)c3cnccc23)ccc2c1CCO2             7.29
3  Oc1c(-c2nnc(NCC3CCOC3)c3cnccc23)ccc2c1CCO2 (single isomer, unassigned) [Example 5B]             7.44
4  Oc1c(-c2nnc(NCC3CCOC3)c3cnccc23)ccc2c1CCO2 (single isomer, unassigned) [Example 5A]             7.49
5  O[C@@H]1CCCC[C@H]1Nc1nnc(-c2ccc3cc[nH]c3c2)c2ccncc12 (racemic)             6.97

So, Oc1c(-c2nnc(NCC3CCCO3)c3cnccc23)ccc2c1CCO2 (single isomer, unassigned) [Example 6B] ? Its pIC50 was 7.23
